tested on: mitochondrial DNA-encoded cytochrome c oxidase (COX-1; complex IV) protein level; experiment: Mitochondrial protein synthesis assay (COX-1, MitoBiogenesis in-cell ELISA) in PC-3 cells; format: cell-based, human; conditions: human; PC-3 cells, COX-1, 5 days; read-out: Mean CC50 ± SD causing Mitochondrial toxicity: Protein synthesis
Quick reference for CC50 among some molecules
reportedEndpoint: CC50 (µM)

molecule=CC(C)OC(=O)[C@H](C)N[P@](=O)(OC[C@H]1O[C@@](C#N)(c2ccc3c(N)ncnn23)[C@](C)(O)[C@@H]1OC(=O)C(C)C)Oc1ccccc1 measurementunits=µM quantitativereadout=31
molecule="COc1nc(N)nc2c1ncn2[C@@H]1O[C@H](COP(=O)(N[C@@H](C)C(=O)OCC(C)(C)C)Oc2cccc3ccccc23)[C@@H](O)[C@@]1(C)O (some centres unmarked)" measurementunits=µM quantitativereadout=0.68
